SYSTEM NAME: UniProtKB Q12809
QUANTITY NAME: IC50 (µM)

> print(dat)
                                   compound  numeric.result
1  CC(C)NCC(O)c1ccc(NS(C)(=O)=O)cc1 (racemic)             516

====

SYSTEM NAME: N588K-hERG (Homo sapiens, UniProt Q12809, N588K)
Sequence (Q12809 whole entry N588K): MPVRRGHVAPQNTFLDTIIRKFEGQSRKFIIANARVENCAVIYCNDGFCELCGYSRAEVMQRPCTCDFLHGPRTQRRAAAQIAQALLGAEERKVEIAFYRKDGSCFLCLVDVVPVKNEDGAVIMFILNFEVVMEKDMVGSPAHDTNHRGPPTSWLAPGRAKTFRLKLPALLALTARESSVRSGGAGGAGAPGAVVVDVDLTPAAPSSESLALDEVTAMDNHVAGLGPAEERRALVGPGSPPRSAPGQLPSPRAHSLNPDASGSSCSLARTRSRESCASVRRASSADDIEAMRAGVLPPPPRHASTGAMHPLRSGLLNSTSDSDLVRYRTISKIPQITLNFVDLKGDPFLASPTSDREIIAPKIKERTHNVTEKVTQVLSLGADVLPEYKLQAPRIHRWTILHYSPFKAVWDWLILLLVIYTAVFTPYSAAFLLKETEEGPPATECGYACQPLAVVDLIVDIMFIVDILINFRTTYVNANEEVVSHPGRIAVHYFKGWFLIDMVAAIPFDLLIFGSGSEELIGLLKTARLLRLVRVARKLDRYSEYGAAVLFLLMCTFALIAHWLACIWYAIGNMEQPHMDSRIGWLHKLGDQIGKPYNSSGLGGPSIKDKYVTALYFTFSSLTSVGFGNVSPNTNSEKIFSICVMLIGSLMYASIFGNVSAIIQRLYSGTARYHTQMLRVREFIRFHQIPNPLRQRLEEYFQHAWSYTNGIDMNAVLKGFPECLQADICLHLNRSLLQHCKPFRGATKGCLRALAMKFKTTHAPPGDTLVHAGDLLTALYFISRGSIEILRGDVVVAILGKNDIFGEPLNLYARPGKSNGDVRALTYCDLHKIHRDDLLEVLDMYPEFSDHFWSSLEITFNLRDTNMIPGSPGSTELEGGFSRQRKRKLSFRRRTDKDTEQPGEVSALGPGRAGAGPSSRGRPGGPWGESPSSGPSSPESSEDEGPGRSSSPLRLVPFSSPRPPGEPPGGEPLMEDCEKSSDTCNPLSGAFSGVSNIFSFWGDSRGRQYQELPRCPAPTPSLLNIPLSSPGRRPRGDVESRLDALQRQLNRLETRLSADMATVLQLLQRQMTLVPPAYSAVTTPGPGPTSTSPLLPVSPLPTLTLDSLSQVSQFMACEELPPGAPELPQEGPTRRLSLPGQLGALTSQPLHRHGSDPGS
pIC50: −log10 of the molar value.
QUANTITY NAME: pIC50

> print(dat)
                                   compound  quantity.name  numeric.result
1  CC(C)NCC(O)c1ccc(NS(C)(=O)=O)cc1 (racemic)          pIC50            2.86

====

SYSTEM NAME: N588E-hERG (Homo sapiens, UniProt Q12809, N588E)
pIC50: −log10 of the molar value.
QUANTITY NAME: pIC50

> print(dat)
                                   molecule                               system.name  quantity.name  numeric.result
1  CC(C)NCC(O)c1ccc(NS(C)(=O)=O)cc1 (racemic) [dl-Sotalol]  N588E-hERG (Homo sapiens, UniProt Q12809, N588E)          pIC50            3.23
